Tested on: HeLa
Assay: MALAT1 nuclear FISH intensity, robust Z-score vs DMSO; higher = more nuclear MALAT1 lncRNA, active = -3 or less
Conditions: 10 µM; 6 h
Outcome: criterion met for MALAT1 nuclear FISH intensity of at least -0.05; criterion not met for anything lower.

Look over these answered cases.
>>> assigned_label("CNC(C)C1CCC(N)C(OC2C(N)CC(N)C(OC3OCC(C)(O)C(NC)C3O)C2O)O1 (configuration not stated) [Gentamicin]")
"criterion not met"
>>> assigned_label("CCCOc1ccc(C(=O)OCCN(CC)CC)cc1N")
"criterion met"
>>> assigned_label("N=C(N)N")
"criterion not met"
>>> assigned_label("CN(C)CCOc1ccc(-c2nc(-c3ccncc3)c(-c3ccc4c(c3)CC/C4=N\\O)[nH]2)cc1")
"criterion met"
>>> assigned_label("Cc1c(OCC(F)(F)F)ccnc1C[S+]([O-])c1nc2ccccc2[nH]1 (configuration not stated) [Lansoprazole]")
"criterion met"

Here is another molecule to look at.
[in] Hi team, for CCC(C)[C@H](NC(=O)[C@H](CCCCN)NC(=O)[C@H](CCCCN)NC(=O)[C@H](C)NC(=O)[C@H](CC(C)C)NC(=O)[C@H](C)NC(=O)[C@H](C)NC(=O)[C@H](CC(C)C)NC(=O)[C@H](C)NC(=O)[C@H](CCCCN)NC(=O)[C@H](CC(C)C)NC(=O)[C@H](CC(N)=O)NC(=O)[C@@H](N)[C@@H](C)CC)C(=O)N[C@@H](CC(C)C)C(N)=O (some centres not stated) [Mastoparan] , is the recorded MALAT1 nuclear FISH intensity at or above -0.05?
[out] criterion not met

====

Listed next: entries and their corresponding MALAT1 nuclear FISH intensity.
Tested on: HeLa;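 further: High-content confocal imaging of branched-DNA amplified FISH in 384-well plates, Hoechst-defined nuclei, score is well value minus plate DMSO median over DMSO robust SD, four wells per compound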
Test: MALAT1 nuclear FISH intensity, robust Z-score vs DMSO; higher = more nuclear MALAT1 lncRNA, active = -3 or less
Conditions: 10 µM; 6 h

Answered cases to consult:
>>> result("CC(/C=C/C(=O)NO)=C\\[C@@H](C)C(=O)c1ccc(N(C)C)cc1 [Trichostatin A]")
"3.72 (inactive)"
>>> result("Cn1c(=O)c2c(ncn2CC(O)CO)n(C)c1=O (centres undefined)")
"-0.0388 (inactive)"
>>> result("CO[C@@]12[C@H](COC(N)=O)C3=C(C(=O)C(C)=C(N)C3=O)N1C[C@@H]1N[C@@H]12 [Mitomycin C]")
"0.475 (inactive)"
>>> result("Cc1cn(-c2cc(NC(=O)c3ccc(C)c(Nc4nccc(-c5cccnc5)n4)c3)cc(C(F)(F)F)c2)cn1")
"-0.228 (inactive)"
>>> result("CNCCC(Oc1ccc(C(F)(F)F)cc1)c1ccccc1 (centres undefined)")
"0.711 (inactive)"
>>> result("COc1cc(/C=C/C(=O)CC(=O)/C=C/c2ccc(O)c(OC)c2)ccc1O")
"0.507 (inactive)"
>>> result("COC(c1ccccc1)(c1ccccc1)[C@H](Oc1nc(C)cc(C)n1)C(=O)O")
"-1.3 (inactive)"
>>> result("S=c1[nH]cnc2nc[nH]c12 [Mercaptopurine Hydrate]")
"-0.672 (inactive)"

[in] Fill blank: measured MALAT1 nuclear FISH intensity of the molecule CC(C)C[C@H](NC(=O)[C@@H](O)[C@H](N)Cc1ccccc1)C(=O)O is ____.
[out] -0.377 (inactive)
